Attribution: BindingDB's records for doi:10.1007/pl00004956

# tested.on: Melatonin receptor type 1B (Homo sapiens, UniProt P49286)
# Sequence (P49286 whole entry): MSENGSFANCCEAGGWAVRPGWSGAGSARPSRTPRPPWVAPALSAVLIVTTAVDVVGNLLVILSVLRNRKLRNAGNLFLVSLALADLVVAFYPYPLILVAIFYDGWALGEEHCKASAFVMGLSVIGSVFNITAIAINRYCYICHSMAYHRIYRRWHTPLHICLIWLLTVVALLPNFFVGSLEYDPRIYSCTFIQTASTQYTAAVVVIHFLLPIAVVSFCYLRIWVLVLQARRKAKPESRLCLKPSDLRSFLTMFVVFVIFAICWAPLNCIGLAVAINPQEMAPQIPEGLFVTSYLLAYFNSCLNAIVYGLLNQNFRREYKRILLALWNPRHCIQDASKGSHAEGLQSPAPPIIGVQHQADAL
Assignment: determine reported pKi for the given compounds.
Answers are plain numbers, as −log10 of the molar value.

Some solved cases for reference:
CC(=O)NCCc1c(C)[nH]c2c(Cl)c(Cl)ccc12    9.64
COC(=O)Nc1ccc2[nH]cc(CCNC(C)=O)c2c1    6.56
CC(=O)NCCc1c(Cc2ccc(C)cc2)[nH]c2ccccc12    8.02

# per-item lookup of pKi; items listed below
1. CC(=O)NCCc1c(Cc2ccccc2)[nH]c2ccccc12
2. CC(=O)NCCN1CCc2ccc3c(c21)CCO3

(A)
1: 7.99; 2: 9.32

Respectfully, I request pKi for each entry included below.
1. CC(=O)NCCc1c[nH]c2ccc(O)cc12 [N-Acetyltryptamine,5-Hydroxy]
2. COc1ccc2[nH]cc(CCN3CCCC3=O)c2c1
3. CC(=O)NC1(Cl)Cc2ccccc2C(c2ccccc2)C1 (centres undefined)
4. COc1ccc2[nH]cc(CCO)c2c1
5. CC(=O)NCCc1c(C)[nH]c2cc(Cl)ccc12

(A)
1: 6.72; 2: 7.73; 3: 9.05; 4: 6.13; 5: 8.66

For each of the items listed, what is its pKi?
1. COc1cc2c(CCNC(C)=O)c[nH]c2cc1O [melatonin, 6-Hydroxy]
2. CC(=O)NCCc1c[nH]c2ccccc12
3. COc1ccc2[nH]c(Cc3ccccc3)c(CCNC(C)=O)c2c1

(A)
8.26
7.90
9.60
